Target: T1, human 4-1BB (h4-1BB) on transiently transfected CHO cells (human, UniProt Q07011 24-255)
T1 construct: also called TNFRSF9; CD137
Test: flow cytometry, CHO cells transfected with human 4-1BB, antibody at 0.1 µg/ml
measure: percentage of cells with FITC signal (%)

- binder: "45-8E2 (antibody, V domains shown, mouse antibody purified from ascites) VH: EVKLLESGGGLVQPGGSLKLSCAASGFDFSRYWMSWVRQAPGKGLEWIGEIHPDSSAINYTPSLKDKFIISRDNAKNTLYLQMSKVRSEDTALYYCARSYYGRVFDYWGQGTTLTVSS VL: DIVMTQSPATLSVTPGDRVSLSCRASQSISDYLHWYQQKSHESPRLLIKYASQSISGIPPRFSGSGSGSDFTLSINSVEPEDVGMYYCQDGHSFPPTFGAGTKLELK"
  experimental value: 49.8
- binder: "45-4B9 (antibody, V domains shown, mouse antibody purified from ascites) VH: EVQLQQSGPELVKPGASVKMSCKASGYTFTTYVMYWVKQRPGQGLEWIGYINPYNDDIRYNEKFKGKATLTSDRSSSTAYMELSSLTSEDSAVYLCARQGGDYWGQGTILTVSS VL: DVQITQSPSYLAASPGETITVNCRASKNINKYLAWYQEKPGKTNKLLIYSGSTLQSGIPSRFSGSGSGTDFTLTISSLEPEDFAVYHCQQYNEYPLTFGAGTKLEMK"
  experimental value: 10.4
- binder: "54-8B11 (antibody, V domains shown, mouse antibody purified from ascites) VH: QIQLVQSGPELKKPGETVKISCKASKFTFTNYGMNWVKQAPGKALKWMGWINTYTGEPTYADDFKGRFDFSLETSATTAYLQINNLKNEDTATYFCARREYYPWVFVYWGQGTLVTVSA VL: ENVLTQSPAIMSASPGEKVTMTCSASSSVSYMHWYQQKSSTSPKLWIYDTSKLASGVPGRFSGSGSGNSYSLTISSMEAEDVATYYCFQGSGYPLTFGGGTKLEIK"
  experimental value: 16.5
- binder: "45-8F1 (antibody, V domains shown, mouse antibody purified from ascites) VH: EVQLQQSGTVLARPGASVKMSCKASGYSFTSYWMHWVKQRPGQGLEWIGVIYPGNSDTSYNQKFKGKAKLTAVTSASTAYMDLSSLTNEDSAVYYCTRGITTAPDYWGQGTTLTVSS VL: NIVMTQSPKSMSMSVGERVTLSCKASENVGIHVSWYQQKPEQSPKLLIYGASSGYNGVPDRFTGSGSATDFTLTISSVQPEDLADYHCGQTYSYPFTFGSGTKLEIK"
  experimental value: 43.9
